Origin of values: ChEMBL document CHEMBL1131924

Parameter Binding affinity: see the listing below.
- tested.on: Vitamin D3 receptor (Gallus gallus) (UniProt O42392)
- Sequence (O42392 whole entry): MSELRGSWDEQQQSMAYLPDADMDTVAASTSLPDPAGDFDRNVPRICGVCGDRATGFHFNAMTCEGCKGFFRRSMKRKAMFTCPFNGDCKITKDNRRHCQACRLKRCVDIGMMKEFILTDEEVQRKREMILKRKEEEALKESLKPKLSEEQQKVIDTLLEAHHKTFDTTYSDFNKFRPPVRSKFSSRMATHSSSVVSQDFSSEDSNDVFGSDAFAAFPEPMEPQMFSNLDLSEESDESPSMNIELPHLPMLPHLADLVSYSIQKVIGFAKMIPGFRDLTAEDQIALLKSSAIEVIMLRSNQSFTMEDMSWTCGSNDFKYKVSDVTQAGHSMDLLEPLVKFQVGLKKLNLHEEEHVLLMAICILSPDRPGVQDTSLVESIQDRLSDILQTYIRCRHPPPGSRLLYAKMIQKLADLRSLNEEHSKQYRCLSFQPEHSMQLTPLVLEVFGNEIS
- test: Relative binding affinity for chick intestinal Vitamin D3 receptor (VDR)

compound: C=C1/C(=C\C=C2/CCC[C@]3(C)[C@@H]([C@H](C)CC[C@@H](O)C(C)(C)[N+](=O)[O-])CC[C@@H]23)C[C@@H](O)C[C@@H]1O
Binding affinity: 93

compound: C=C1/C(=C\C=C2/CCC[C@]3(C)[C@@H]([C@H](C)CCCC(C)(C)O)CC[C@@H]23)C[C@@H](O)C[C@@H]1O [CALCITRIOL]
Binding affinity: 100

compound: C=C1/C(=C\C=C2/CCC[C@]3(C)[C@@H]([C@H](C)CC[C@H](O)C(C)(C)[N+](=O)[O-])CC[C@@H]23)C[C@@H](O)C[C@@H]1O
Binding affinity: 10

compound: C=C1/C(=C\C=C2/CCC[C@]3(C)[C@@H]([C@H](C)CC[C@H](O)C(C)C)CC[C@@H]23)C[C@@H](O)C[C@@H]1O
Binding affinity: 10

compound: C=C1/C(=C\C=C2/CCC[C@]3(C)[C@@H]([C@H](C)CC[C@@H](O)C(C)C)CC[C@@H]23)C[C@@H](O)C[C@@H]1O [TACALCITOL]
Binding affinity: 131
